# System: Mycobacterium tuberculosis
# TEST_DETAILS: Antimycobacterial activity against Mycobacterium tuberculosis H37Ra assessed as inhibition of bacterial growth at 10 ug/ml measured by microplate alamar blue assay
# Type: functional

{"COMPOUND": "Cc1c(C#CC2CC2)c(=O)[nH]c(=O)n1[C@@H]1O[C@H](CO)[C@@H](O)[C@H]1O", "inhibition at 10 µg/mL [%]": 80}
{"COMPOUND": "Cc1c(C#Cc2ccccc2)c(=O)[nH]c(=O)n1[C@@H]1O[C@H](CO)[C@@H](O)[C@H]1O", "inhibition at 10 µg/mL [%]": 75}
{"COMPOUND": "CCC#Cc1c(C)n([C@@H]2O[C@H](CO)[C@@H](O)[C@H]2O)c(=O)[nH]c1=O", "inhibition at 10 µg/mL [%]": 10}
{"COMPOUND": "CCCC#Cc1c(C)n([C@@H]2O[C@H](CO)[C@@H](O)[C@H]2O)c(=O)[nH]c1=O", "inhibition at 10 µg/mL [%]": 0}
{"COMPOUND": "CC#Cc1c(C)n([C@@H]2O[C@H](CO)[C@@H](O)[C@H]2O)c(=O)[nH]c1=O", "inhibition at 10 µg/mL [%]": 10}
{"COMPOUND": "N[C@@H]1CONC1=O [CYCLOSERINE]", "inhibition at 10 µg/mL [%]": 67}
